systemTested: recombinant pentameric gH complex (Towne strain) (human cytomegalovirus, Towne strain) (UniProt P17176)
Sequence (P17176 30-715, one chain of several): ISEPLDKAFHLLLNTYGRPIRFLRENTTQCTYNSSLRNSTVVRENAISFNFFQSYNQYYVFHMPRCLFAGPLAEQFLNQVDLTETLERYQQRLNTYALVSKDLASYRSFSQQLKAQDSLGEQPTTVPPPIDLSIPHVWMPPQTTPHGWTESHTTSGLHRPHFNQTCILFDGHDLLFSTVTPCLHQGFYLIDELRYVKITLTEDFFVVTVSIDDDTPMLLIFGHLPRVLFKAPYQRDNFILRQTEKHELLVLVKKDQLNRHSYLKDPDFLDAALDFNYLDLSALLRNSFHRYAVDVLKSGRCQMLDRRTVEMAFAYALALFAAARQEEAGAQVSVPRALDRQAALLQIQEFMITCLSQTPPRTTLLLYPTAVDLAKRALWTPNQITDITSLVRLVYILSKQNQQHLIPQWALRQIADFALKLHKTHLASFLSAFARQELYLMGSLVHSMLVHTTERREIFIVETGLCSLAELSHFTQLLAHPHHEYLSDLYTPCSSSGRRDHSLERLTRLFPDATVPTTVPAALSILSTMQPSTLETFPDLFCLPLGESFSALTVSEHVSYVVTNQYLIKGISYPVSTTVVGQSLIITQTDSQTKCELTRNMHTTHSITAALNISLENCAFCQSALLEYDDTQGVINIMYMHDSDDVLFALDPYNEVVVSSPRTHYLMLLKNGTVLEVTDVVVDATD
testMethodNotes: BLI competition on His-pentamer; competitor (antibody 2): 3-15
Listing: Pair-wise inhibition (%) of selected binders
Numeric only. Scale: %

binder	observedValue
2-18 (antibody, V domains shown) VH: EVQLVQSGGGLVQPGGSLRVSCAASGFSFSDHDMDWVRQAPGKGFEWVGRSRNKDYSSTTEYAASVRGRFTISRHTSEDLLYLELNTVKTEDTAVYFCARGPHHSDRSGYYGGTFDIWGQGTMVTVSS VL: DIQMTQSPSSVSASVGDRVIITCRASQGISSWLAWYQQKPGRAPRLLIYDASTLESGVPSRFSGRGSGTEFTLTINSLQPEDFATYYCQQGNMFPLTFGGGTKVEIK	15
1-85 (antibody, V domains shown) VH: QVHLVESGGGLVKPGRSLRLSCAASGFTFSDYYMAWIRQVPGKGLEWVSFISSSGRTIYYADSVKGRFTISRDNAKDSLYLQMHSLRAEDTAVYYCARDSYSKLVDIEAIEAFDIWGRGTMVTVSS VL: SYELAQPPSVSVAPGKTATIACGGDNIGGKSVHWYLQKAGQAPVLVISYDSDRPSGIPERFSGSNSGNTATLTISRVEAGDEADYFCQVWDRHGDHVVFGGGTKLTVL	33
1-32 (antibody, V domains shown) VH: QVKLVESGGGVVQPGRSLRLSCAGSGFAFDNYAMHWVRQAPGKGLEWVAVISLEGRNKYYAGPAKGRFSISRDNSRNTVHLQMNSLRPEDTAVYFCARDMRYYYDSNGHYRNRYGMDVWGQGTTVIVSS VL: DIQMTQSPSSLSASVGDSVTITCQASQDINQFVSWYQQKPGKPPKLLIYDASNLESGVPSRFSGSGSGTHFTFTISSLQPDDIATYYCQQYENLFTFGPGTKVDIK	7

Pair-wise inhibition (%) for 1-103 (antibody, V domains shown) VH: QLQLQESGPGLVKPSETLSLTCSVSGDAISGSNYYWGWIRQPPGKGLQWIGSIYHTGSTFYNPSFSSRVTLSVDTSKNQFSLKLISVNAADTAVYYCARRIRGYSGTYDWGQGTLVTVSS VL: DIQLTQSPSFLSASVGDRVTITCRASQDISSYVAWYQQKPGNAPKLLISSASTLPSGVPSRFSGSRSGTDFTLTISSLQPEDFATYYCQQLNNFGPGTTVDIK ?
-7

Pair-wise inhibition (%) for 1-150 (antibody, V domains shown) VH: QVQLVESGGGLVKPGGSLRLSCAASGFSFSAYYMSWIRQAPGKGLEWISYISSSGNTIYYTDSVKGRFTIARDNAKNSLYLQMNSLRAEDTGLYYCARDSYSKLADIEATEAFDVWGQGTMVAVSS VL: SYELTQPPSVSVAPGKTARITCGGNNIGSKSVHWYQQKPGQAPVMVIYYDSDRPSGIPERFSGSNSGNTATLTISRVEAGDEADYYCQVWDSGSDRVVFGGGTKLTVL ?
6
